Reported Percentages of flavonolignan components of silymarin in the sample values for the following compounds.
test: Silymarin saturated solubility with CAPTISOL® (Example 1, HPLC); conditions: CAPTISOL® (0.3M), saturated solubility
Answer format: numeric, % implied, no suffix.

Provide one value: measured Percentages of flavonolignan components of silymarin in the sample of COc1cc([C@H]2Oc3c(O)cc([C@H]4Oc5cc(O)cc(O)c5C(=O)[C@@H]4O)cc3[C@@H]2CO)ccc1O [Silychristin B]
3.48

Consider the compound COc1cc([C@@H]2Oc3cc([C@H]4Oc5cc(O)cc(O)c5C(=O)[C@@H]4O)ccc3O[C@H]2CO)ccc1O [Silybin B] and give its recorded Percentages of flavonolignan components of silymarin in the sample.
21.96

Fill in reported Percentages of flavonolignan components of silymarin in the sample for this entry: COc1cc([C@@H]2Oc3c(O)cc([C@H]4Oc5cc(O)cc(O)c5C(=O)[C@@H]4O)cc3[C@H]2CO)ccc1O [Silychristin A]
37.52

From here, focus on the item given below.
Please indicate Percentages of flavonolignan components of silymarin in the sample recorded for COc1cc([C@H]2Oc3cc([C@H]4Oc5cc(O)cc(O)c5C(=O)[C@@H]4O)ccc3O[C@@H]2CO)ccc1O [Silybin A]
10.22

Values compiled from patent US10702568B2.
